# Species: Rattus norvegicus
# assay.details: DrugMatrix - Regimen: Daily Repeat
# Type: toxicity, organism-based, Sprague-Dawley
# Parameters: regimen Daily Repeat, gender Male, age 6-8 weeks
# cond: in vivo, po, 10 mg/kg, 72 h, tissue Blood, route oral GAVAGE, dose level Low, time 3 day, […]
Assign MEAN CORPUSCULAR HEMOGLOBIN to each entry below.
One number for each entry, in pg.

CC(C)CC(N(C)C)C1(c2ccc(Cl)cc2)CCC1 (centres undefined) = 25.17
CCOC(=O)C1=C(C)NC(C)=C(C(=O)OC)C1c1cccc([N+](=O)[O-])c1 (centres undefined) = 24.03
COCCOC(=O)C1=C(C)NC(C)=C(C(=O)OC(C)C)C1c1cccc([N+](=O)[O-])c1 (centres undefined) = 24.83

Find the recorded MEAN CORPUSCULAR HEMOGLOBIN belonging to COc1ccc2cc([C@H](C)C(=O)O)ccc2c1 and report it.
25.03
